Where do the numbers come from? From patent US20250320213A1.

# system: STAT6 (Homo sapiens, UniProt P42226)
# Construct: stably transfected HaCaT keratinocyte cell line, which expresses NanoLuc luciferase reporter gene under the transcriptional control of the STAT6 responsive promoter; endogenous in cells; host or cells: HaCaT keratinocyte reporter cell line (stably transfected with a NanoLuc reporter)
# Sequence (P42226 whole entry): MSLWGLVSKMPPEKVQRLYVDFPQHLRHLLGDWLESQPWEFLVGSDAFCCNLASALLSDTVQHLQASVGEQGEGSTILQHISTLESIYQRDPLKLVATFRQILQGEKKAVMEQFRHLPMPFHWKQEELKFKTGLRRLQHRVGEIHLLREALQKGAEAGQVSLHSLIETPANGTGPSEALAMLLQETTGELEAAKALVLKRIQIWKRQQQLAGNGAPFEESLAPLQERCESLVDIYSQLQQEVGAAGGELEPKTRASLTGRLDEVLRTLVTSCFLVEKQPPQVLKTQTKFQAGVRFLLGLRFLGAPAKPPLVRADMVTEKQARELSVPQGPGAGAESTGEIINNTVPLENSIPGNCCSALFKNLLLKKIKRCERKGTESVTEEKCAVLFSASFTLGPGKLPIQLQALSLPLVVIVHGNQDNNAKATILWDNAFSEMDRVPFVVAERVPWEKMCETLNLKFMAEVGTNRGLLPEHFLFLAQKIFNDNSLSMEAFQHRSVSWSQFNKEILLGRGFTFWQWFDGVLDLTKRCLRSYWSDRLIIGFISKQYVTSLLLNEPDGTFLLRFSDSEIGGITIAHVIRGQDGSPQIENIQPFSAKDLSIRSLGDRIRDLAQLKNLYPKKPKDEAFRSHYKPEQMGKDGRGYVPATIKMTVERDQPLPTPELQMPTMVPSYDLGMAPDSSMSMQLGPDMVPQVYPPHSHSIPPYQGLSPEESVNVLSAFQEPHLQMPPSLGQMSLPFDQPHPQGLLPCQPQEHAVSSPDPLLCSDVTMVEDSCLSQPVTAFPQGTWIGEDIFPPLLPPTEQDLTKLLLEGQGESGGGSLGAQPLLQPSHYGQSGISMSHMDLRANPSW
# assay name: STAT6 Reporter Luciferase Assay (IL-13 stimulated HaCaT keratinocyte NanoLuc reporter cells)
# Assay type: cell-based
# experimental conditions: IL-13 stimulated HaCaT STAT6 NanoLuc reporter cells; read-out: Reporter EC50
# From the text: Pharmacological measurements of STAT6 transcriptional activity through the IL-13-IL-13 receptor/IL-4 receptor pathway were made with a stably transfected HaCaT keratinocyte cell line, which expresses NanoLuc luciferase reporter gene under the transcriptional control of the STAT6 responsive promoter for IL-13Ra2. The readout of the STAT6 activity utilized Promega Nano-Glo Luciferase assay kit. […]
pEC50: −log10 of the molar value.
endpoint label: pEC50

**Q:** # pEC50 lookup, item Cc1coc(-c2ccc(CNC(=O)c3nn(C(C)C)c4c3CN(c3ccc(C(=O)N(C)C)cc3)C[C@@H]4C)cc2)n1 [Example 723]
**A:** 6.89

P. CC(CC#N)n1nc(C(=O)NCc2ccc(NC(=O)N(C)C)cc2)c2c1CCN(c1ccc(C(=O)N(C)C)cn1)C2 (racemic) [Example 358]
Q. CCC1CN(c2ccc(C(=O)N(C)C)cn2)Cc2c(C(=O)NCc3ccc(NC(=O)N(C)C)cc3)nn(C(C)C)c21 (racemic) [Example 246]
**Q:** // returns P or Q , whichever has the lower pEC50 Response format: the label of the selected entry.
**A:** P
(P: 7.29, Q: 9.00)
